B1: LINE1-mini (parent)
chain: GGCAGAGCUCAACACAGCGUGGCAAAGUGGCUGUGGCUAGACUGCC

Variants of: B1
MEASUREMENT_NOTES: self-cleavage, relative activity (ratio to wild type); higher = more cleavage; in vitro, sequencing; the parent is a self-cleaving ribozyme
// classify(record): look up self-cleavage in ranges lower range: < 0.05; middle range: ≥ 0.05 and < 0.1; upper range: ≥ 0.1

GCCAGAGCUCAACACAGCGUGGCAAAGUGGCUGUGGCUAGACUGAC; upper range
GUCCGAGCUCAACACAGCGUGGCAAAGUGGCUGUGGCUAGACUGCC; middle range
GGCAGAGCUCAACACAGUGUGGCAAAGUGGCUGUGGCUGGACUGCC; middle range
GGCAGAGCUCAACACAGCGUGGCAAAGUGGCUGUGGGUCGACUGCC; middle range
GGCAGAGCUCAACACCGCGUGGCAAGGUGGCUGUGGCUAGACUGCC; lower range
GGCAGAGCUCAACACAGCAUGGUAAAGUGGCUGUGGCUAGACUGCC; upper range
GGCAGAGCUCAACACAGCGUGGCAAAGUGGCUGUUGCUACACUGCC; middle range
GGCAGAGCUCAACACAUCGUGGCAAAGUGACUGUGGCUAGACUGCC; upper range
GGCAAAGCUCAACACAGCGUGGCAAAGUGUCUGUGGCUAGACUGCC; upper range
GGCAGAGCUCAACACAGCGUGGCAAAGUGGCGGUGGCUAGACUGGC; upper range

Form: Item = `GGCAGAGCUCCACACAGUGUGGCAAAGUGGCUGUGGCUAGACUGCC` ; Class = ?
lower range

Categorize the following entry: `GGCAGAGCUCGACACGGCGUGGCAAAGUGGCUGUGGCUAGACUGCC`
lower range

Field: class (self-cleavage) — entry: `GGCAGAGCUCAACACAGCGUGGCAAAGUGGCUGUGGCAAGACUGCC`
upper range

Cited source: the RNAGym collection of RNA variant scans (doi:10.7554/elife.90254)
